systemName: SMAD3 MH1 (Homo sapiens, UniProt P84022 1-132)
Sequence (P84022 1-132): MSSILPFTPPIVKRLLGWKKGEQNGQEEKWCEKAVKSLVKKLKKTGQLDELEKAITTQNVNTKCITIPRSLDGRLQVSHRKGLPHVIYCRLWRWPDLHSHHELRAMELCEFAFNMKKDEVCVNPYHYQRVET
runDescription: EMSA; Hill 2.2; EMSA: 25 mM Tris-HCl (pH not given for binding buffer; RNA stock pH 7.5), 115 mM KCl, 1 mM MgCl2, 1 mM DTT, 20 ng/ul poly I:C, 0.1 mg/ml BSA, 10% glycerol, on ice 2 h; 0.5x TBE gel at 4 C
conditionDetails: protein: recombinant; tags: 6xHis-SUMO cleaved; label: 5' 32P; hairpin with 1x5 internal loop
measurementKind: Kd

Exercise: Endpoint output: Kd of 17e D4a isolated apical loop (structured_RNA) RNA: GGGUCUCGUAUUGCAGAUGACACAUCUGCCGUAACCAAUCGGGUAAAAGGUGUGUCAUCUGCAAUGCGAGAC . Value?
Key: 400 nM
